# inhibition of growth at 50 µM per entry
# System: PC-3
# assay method text: Growth inhibition of human PC3 cells at 50 uM after 48 hrs by SRB assay relative to control
# Format: functional
# measurement parameters: PC-3, 48 h, read-out: GI
Quick note: give the figure in %, leave out the unit.

1. CC(=O)N1CCN(c2ccc(OCC3COC(Cn4ccnc4)(c4ccc(Cl)cc4Cl)O3)cc2)CC1 (stereo not given): 88.5
2. C[C@]12CC[C@H](OC(=O)c3ccc(C(F)(F)F)cc3)CC1=CC[C@@H]1[C@@H]2CC[C@]2(C)C(n3cccn3)=C(C=O)C[C@@H]12: 78.2
3. C[C@]12CC[C@H](OC(=O)c3ccc([N+](=O)[O-])cc3)CC1=CC[C@@H]1[C@@H]2CC[C@]2(C)C(n3cncn3)=C(C=O)C[C@@H]12: 85.7

q: Observed inhibition of growth at 50 µM on PC-3 for C[C@]12CC[C@H](OC(=O)c3ccc(Br)cc3)CC1=CC[C@@H]1[C@@H]2CC[C@]2(C)C(n3cccn3)=C(C=O)C[C@@H]12 , please.
a: 3.7

q: Observed inhibition of growth at 50 µM on PC-3 for C[C@]12CC[C@H](OC(=O)c3ccc(C#N)cc3)CC1=CC[C@@H]1[C@@H]2CC[C@]2(C)C(n3cccn3)=C(C=O)C[C@@H]12 , please.
a: 30.4

* * *

# System: SK-LU-1
# assay method text: Growth inhibition of human SKLU1 cells at 50 uM after 48 hrs by SRB assay relative to control
# Assay type: functional
# measurement parameters: SK-LU-1, 48 h, read-out: GI
measured parameter: inhibition of growth at 50 µM
Provide the measurement as a number trailed by its unit.

q: Could you share which inhibition of growth at 50 µM value was measured for Cc1ccc(C(=O)O[C@H]2CC[C@@]3(C)C(=CC[C@@H]4[C@@H]3CC[C@]3(C)C(n5cccn5)=C(C=O)C[C@@H]43)C2)cc1 ?
a: 8.5%

q: Could you share which inhibition of growth at 50 µM value was measured for C[C@]12CC[C@H](OC(=O)C3CCCCCC3)CC1=CC[C@@H]1[C@@H]2CC[C@]2(C)C(n3cncn3)=C(C=O)C[C@@H]12 ?
a: 94.7%

q: Could you share which inhibition of growth at 50 µM value was measured for C[C@]12CC[C@H](OC(=O)c3ccc([N+](=O)[O-])cc3)CC1=CC[C@@H]1[C@@H]2CC[C@]2(C)C(n3cncn3)=C(C=O)C[C@@H]12 ?
a: 100%

q: Could you share which inhibition of growth at 50 µM value was measured for CC(=O)N1CCN(c2ccc(OCC3COC(Cn4ccnc4)(c4ccc(Cl)cc4Cl)O3)cc2)CC1 (stereo unspecified) ?
a: 73.4%

q: Could you share which inhibition of growth at 50 µM value was measured for C[C@]12CC[C@H](OC(=O)c3ccc(Cl)cc3)CC1=CC[C@@H]1[C@@H]2CC[C@]2(C)C(n3cccn3)=C(C=O)C[C@@H]12 ?
a: 20.7%

q: Could you share which inhibition of growth at 50 µM value was measured for C[C@]12CC[C@H](O)CC1=CC[C@@H]1[C@@H]2CC[C@]2(C)C(n3cccn3)=C(C=O)C[C@@H]12 ?
a: 100%

* * *

# Test system: PC-3
# assay method text: Growth inhibition of human PC3 cells at 50 uM after 48 hrs by SRB assay relative to control
# Type: functional
# measurement parameters: PC-3, 48 h, read-out: GI
# label = 1 if inhibition of growth at 50 µM >= 20% else -1

Before answering, review these 4 worked examples.
1) C[C@]12CC[C@H](OC(=O)c3ccccc3)CC1=CC[C@@H]1[C@@H]2CC[C@]2(C)C(n3cncn3)=C(C=O)C[C@@H]12: 1
2) C[C@]12CC[C@H](OC(=O)c3ccc(C(F)(F)F)cc3)CC1=CC[C@@H]1[C@@H]2CC[C@]2(C)C(n3cncn3)=C(C=O)C[C@@H]12: 1
3) C[C@]12CC[C@H](OC(=O)c3ccc(Cl)cc3)CC1=CC[C@@H]1[C@@H]2CC[C@]2(C)C(n3cccn3)=C(C=O)C[C@@H]12: 1
4) C[C@]12CC[C@H](OC(=O)c3ccccc3)CC1=CC[C@@H]1[C@@H]2CC[C@]2(C)C(n3cccn3)=C(C=O)C[C@@H]12: 1

q: Decide: is the reported value of inhibition of growth at 50 µM for C[C@]12CC[C@H](OC(=O)c3ccc(C#N)cc3)CC1=CC[C@@H]1[C@@H]2CC[C@]2(C)C(n3cncn3)=C(C=O)C[C@@H]12 equal to or greater than 20%?
a: 1

q: Decide: is the reported value of inhibition of growth at 50 µM for C[C@]12CC[C@H](OC(=O)C3CCCCC3)CC1=CC[C@@H]1[C@@H]2CC[C@]2(C)C(n3cncn3)=C(C=O)C[C@@H]12 equal to or greater than 20%?
a: -1

* * *

# Tested on: MCF7
# assay method text: Growth inhibition of human MCF7 cells at 50 uM after 48 hrs by SRB assay relative to control
# Assay type: functional
# measurement parameters: MCF7, 48 h, read-out: GI
measured parameter: inhibition of growth at 50 µM (%)
Quick note: give the figure in %, leave out the unit.

Worked cases, inhibition of growth at 50 µM given:
1) C[C@]12CC[C@H](OC(=O)c3ccc(F)cc3)CC1=CC[C@@H]1[C@@H]2CC[C@]2(C)C(n3cccn3)=C(C=O)C[C@@H]12: 50.7
2) C[C@]12CC[C@H](OC(=O)C3CCCCC3)CC1=CC[C@@H]1[C@@H]2CC[C@]2(C)C(n3cncn3)=C(C=O)C[C@@H]12: 11

# next molecule below
q: Could you share which inhibition of growth at 50 µM value was measured for C[C@]12CC[C@H](OC(=O)c3ccccc3)CC1=CC[C@@H]1[C@@H]2CC[C@]2(C)C(n3cccn3)=C(C=O)C[C@@H]12 ?
a: 32.6
